Each recorded value in this set is attributed to paper PMC6611404.

molecular target: AChE from human erythrocytes (Homo sapiens); construct: AChE from human erythrocytes; purchased Sigma Aldrich; host or cells: human erythrocytes (natural source); assay: biochemical; conditions: read-out: (h)AChE % inhibition at 10^−6M
Below, each entry is listed alongside its reported inhibition at 1 µM.
Express the result in % but write the number alone.

>  <querySmiles>
COc1cc(N)c(Cl)cc1C(=O)CCC1CCN(Cc2cccc(Br)c2)CC1

>  <inhibition at 1 µM (%)>
44

$$$$
>  <querySmiles>
COc1cc(N)c(Cl)cc1C(=O)CCC1CCN(Cc2ccccc2Cl)CC1

>  <inhibition at 1 µM (%)>
91

$$$$
>  <querySmiles>
COc1cc(N)c(Cl)cc1C(=O)CCC1CCN(Cc2ccccc2O)CC1

>  <inhibition at 1 µM (%)>
94

$$$$
>  <querySmiles>
COc1cc(N)c(Cl)cc1C(=O)CCC1CCN(Cc2cccc([N+](=O)[O-])c2)CC1

>  <inhibition at 1 µM (%)>
64

$$$$

Please fill in: inhibition at 1 µM reported for COc1cccc(CN2CCC(CCC(=O)c3cc(Cl)c(N)cc3OC)CC2)c1 = 35

###

Biological target: (h)5-HT4(a)R (Homo sapiens)
Construct: HA
Sequence (Q13639 1-387 isoform Q13639-2): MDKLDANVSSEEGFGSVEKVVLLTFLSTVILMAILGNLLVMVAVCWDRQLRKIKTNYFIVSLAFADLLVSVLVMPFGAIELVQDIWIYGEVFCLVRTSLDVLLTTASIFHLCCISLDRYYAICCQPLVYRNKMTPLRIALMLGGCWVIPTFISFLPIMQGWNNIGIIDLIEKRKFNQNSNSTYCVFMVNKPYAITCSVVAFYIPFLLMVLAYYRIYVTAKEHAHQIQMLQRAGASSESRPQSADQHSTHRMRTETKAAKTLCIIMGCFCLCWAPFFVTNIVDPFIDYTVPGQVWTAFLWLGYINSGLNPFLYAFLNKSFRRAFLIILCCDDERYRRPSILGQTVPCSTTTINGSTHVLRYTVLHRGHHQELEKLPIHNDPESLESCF
Assay: 5-HT4R-induced cAMP production in transfected COS-7 cells
Description: COS-7 cells were grown in Dulbecco’s modified Eagle medium (DMEM) supplemented with 10% dialyzed fetal calf serum (dFCS) and antibiotics. […] Quantification of cAMP production was performed by HTRF® by using the cAMP Dynamic kit (Cisbio Bioassays) according to the manufacturer’s instructions.
quantityName: EC50 (nM)
Express your answer in nM, writing the number without its unit.

Looking up COc1cc(N)c(Cl)cc1C(=O)CCC1CCN(Cc2cccc(C)c2)CC1.O=C(O)/C=C/C(=O)O [compound 10] , I see its EC50 listed as 20

###

molecular target: AChE from human erythrocytes (Homo sapiens, UniProt P22303); construct: AChE from human erythrocytes; purchased Sigma Aldrich; host or cells: human erythrocytes (natural source); assay: biochemical; settings: (h)AChE IC50, n = 2
Sequence (P22303 other isoform, or with tags, fused parts or gaps): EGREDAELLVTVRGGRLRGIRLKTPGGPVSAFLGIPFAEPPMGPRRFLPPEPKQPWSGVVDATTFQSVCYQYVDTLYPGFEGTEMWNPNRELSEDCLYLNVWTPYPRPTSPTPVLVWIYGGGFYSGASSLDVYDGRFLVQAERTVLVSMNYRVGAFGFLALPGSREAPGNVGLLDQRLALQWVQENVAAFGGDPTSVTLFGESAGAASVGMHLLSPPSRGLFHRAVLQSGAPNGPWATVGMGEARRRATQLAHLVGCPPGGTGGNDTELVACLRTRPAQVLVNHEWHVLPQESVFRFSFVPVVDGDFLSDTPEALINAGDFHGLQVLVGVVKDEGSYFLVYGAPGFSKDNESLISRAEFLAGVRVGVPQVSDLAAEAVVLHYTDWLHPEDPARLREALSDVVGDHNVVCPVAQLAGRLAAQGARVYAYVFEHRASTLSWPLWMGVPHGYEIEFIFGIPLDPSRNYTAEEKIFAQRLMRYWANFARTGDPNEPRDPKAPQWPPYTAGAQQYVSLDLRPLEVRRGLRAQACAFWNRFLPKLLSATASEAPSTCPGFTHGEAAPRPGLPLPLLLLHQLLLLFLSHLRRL
quantityName: IC50
Please append the unit to your numeric answer.

// IC50 lookup, compound = COc1cc(N)c(Cl)cc1C(=O)CCC1CCN(Cc2cccc(C)c2)CC1 , result: 161 nM

###

Below, each entry is listed alongside its reported inhibition at 1 µM.
target: AChE from human erythrocytes (Homo sapiens, UniProt P22303); construct: AChE from human erythrocytes; purchased Sigma Aldrich; host or cells: human erythrocytes (natural source); assay: biochemical; settings: read-out: (h)AChE % inhibition at 10^−6M
Write it as a number; the unit % goes unstated.

Kindly note: AChE from human erythrocytes (Homo sapiens, UniProt P22303), COc1cc(N)c(Cl)cc1C(=O)CCC1CCN(Cc2ccccc2I)CC1 [5e] , inhibition at 1 µM value reported: 37

Item COc1cc(N)c(Cl)cc1C(=O)CCC1CCN(Cc2cccc(F)c2)CC1 [5j] was tested on AChE from human erythrocytes (Homo sapiens, UniProt P22303); the reported inhibition at 1 µM is 97

// assay AChE from human erythrocytes (Homo sapiens, UniProt P22303), entry COc1cc(N)c(Cl)cc1C(=O)CCC1CCN(Cc2ccccc2)CC1 [5a] , inhibition at 1 µM value = 98

###

molecular target: AChE from human erythrocytes (Homo sapiens, UniProt P22303); construct: AChE from human erythrocytes; purchased Sigma Aldrich; host or cells: human erythrocytes (natural source); experiment: biochemical; conditions: n = 2; read-out: (h)AChE IC50
Each entry below carries its recorded IC50.
Your answer should be a number followed by the unit of measure.

Recorded results for 2 molecules are shown here.
>  <molecule>
COc1cc(N)c(Cl)cc1C(=O)CCC1CCN(Cc2ccccc2Cl)CC1 [5b]

>  <quantityName>
IC50

>  <observedMeasurement>
156 nM

$$$$
>  <molecule>
COc1cc(N)c(Cl)cc1C(=O)CCC1CCN(Cc2ccccc2Br)CC1 [5c]

>  <quantityName>
IC50

>  <observedMeasurement>
317 nM

$$$$

// next entry
Reported IC50 ( COc1cc(N)c(Cl)cc1C(=O)CCC1CCN(Cc2ccc(O)cc2)CC1 [5p] ) = 6 nM
